Consider the following binders; for each one, report its koff.
molecular target: IL-2 (C013, Novoprotein) (UniProt P60568 21-153); experiment: SPR (Biacore T200), antibody captured on Protein A chip, IL-2 analyte, 1:1 model
Sequence (P60568 21-153 limits assumed): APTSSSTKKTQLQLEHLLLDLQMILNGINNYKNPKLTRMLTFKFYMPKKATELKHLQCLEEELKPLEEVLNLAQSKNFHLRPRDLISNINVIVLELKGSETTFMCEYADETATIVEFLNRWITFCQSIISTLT
Give just the number in s⁻¹; leave the unit off.

Reported koff of D2-60 full-length fully human anti-IL-2 antibody (antibody, human IgG1, kappa, L234A L235A, V domains shown, Human IgG1 with LALA mutation, kappa light chain) VH: QVQLVQSGAEVKKPGASVKVSCKASGYTFTSYGISWVRQAPGQGLEWMGWISAYNGNTNYAQKLQGRVTMTTDTSTSTAYMELRSLRSDDTAVYYCAREYSSWYSGGMDVWGQGTTVTVSS VL: DIQMTQSPSSLSASVGDRVTITCRASQGISNYLAWYQQKPGKVPKLLIYAASTLQSGVPSRFSGSGSGTDFTLTISSLQPEDVATYYCQKYDSAPFTFGQGTRLEIKR : 0.00651

A2-22 full-length fully human anti-IL-2 antibody (antibody, human IgG1, kappa, L234A L235A, V domains shown, Human IgG1 with L234A/L235A (LALA), kappa light chain; expressed in HEK293) VH: QVQLVQSGAEVKKPGASVKVSCKASGYTFTSYYMHWVRQAPGQGLEWMGIINPSGGSTSYAQKFQGRVTMTRDTSTSTVYMELSSLRSEDTAVYYCAREDWMEYEYYYGMDVWGQGTLVTVSS VL: EIVLTQSPGTLSLSPGERATLSCRASQSVSNNYLAWYQQKPGQAPRLLIYGASSRATGIPDRFSGSGSGTDFTLTISRLEPEDFAVYSCQQYGSSPLTFGQGTRLEIKR has a reported koff of 0.0527

Quick note, koff for C2-53 full-length fully human anti-IL-2 antibody (antibody, human IgG1, kappa, L234A L235A, V domains shown, Human IgG1 with LALA mutation, kappa light chain) VH: EVQLVESGGGLVQPGRSLILSCAASGFTFDDYAMHWVRQAPGKGLEWVSGISWNSGSIGYADSVKGRFTISRDNAKNSLYLQMNSLRAEDTALYYCAKDQLRWGTYYYYGMDVWGQGTTVTVSS VL: DIQMTQSPSTLSASVGDRVTITCRASQSVSIWVAWYQQKPGKAPKLLIYKASSLERGVPTRFSGSGSGTEFTLTISSLQPEDFATYHCQQYDTGATFGQGTKVEMKR landed at 0.00437

The recorded koff for entry D3-68 full-length fully human anti-IL-2 antibody (antibody, human IgG1, kappa, L234A L235A, V domains shown, Human IgG1 with LALA mutation, kappa light chain) VH: QVQLVQSGPEVKKPGASVKVSCKASGYTFTSYGISWVRRAPGQGLEWMGWISAYNGNTNYAQKLQGRVTMTTDTSTSTAYMELRSLRSDDTAVYYCARDLQSPTYYYGSGVIDYWGQGTLVTVSS VL: DIQLTQSPSTLSASVGDRVTISCRASRAVSPWLAWYQHRPGQAPKLLIYAASSLQSGVPSRFSGSGSGTDFTLTISSLQPEDFATYYCQQYRSYPFTFGPGTTVDIRR equals 0.0546
